Test system: nightshade (eastern black nightshade, Solanum ptycanthum)
Test: Test B preemergence, nightshade
Format: in vivo
Conditions: 62 g ai/ha, scale 0 to 100
# Plant response rating, Nightshade values compiled below
# respond with the number and nothing more

Solved entries:
INSERT INTO measurements (smiles_notation, property_measured, test_value) VALUES
  ('CC1(C)CC(S(=O)(=O)Cc2c(C(F)(F)F)nc3n(c2=O)CCO3)=NO1', 'Plant response rating, Nightshade', 0),
  ('CC1(C)CC(S(=O)(=O)Cc2c(C(F)(F)F)nc3n(c2=O)CCC3)=NO1', 'Plant response rating, Nightshade', 95),
  ('CC1(C)CC(S(=O)(=O)Cc2c(C(F)(F)F)nc3n(c2=O)CCS3)=NO1', 'Plant response rating, Nightshade', 95);

Then there is this compound:
The compound listed as CC1(C)CC(S(=O)(=O)Cc2c(C(F)(F)F)nc3n(c2=O)CCCC3)=NO1 has a reported Plant response rating, Nightshade of 75

====

Test system: large crabgrass (Digitaria sanguinalis)
Assay: Test A preemergence, large crabgrass
Type: in vivo
Conditions: 500 g ai/ha, 0 to 100 scale (0 no effect, 100 complete control)
From the text: Seeds of barnyardgrass (Echinochloa crus-galli), large crabgrass (Digitaria sanguinalis), giant foxtail (Setaria faberi), morningglory (Ipomoea spp.), pigweed (Amaranthus retroflexus), velvetleaf (Abutilon theophrasti), wheat (Triticum aestivum), and corn (Zea mays) were planted into a blend of loam soil and sand and treated preemergence with a directed soil spray using test chemicals formulated in a non-phytotoxic solvent mixture which included a surfactant. […]
property_measured: Plant response rating, Crabgrass, Large
# respond with the number and nothing more

INSERT INTO results (molecule, experimental_system, test_value) VALUES
  ('Cc1con2c(=O)c(C[S+]([O-])C3=NOC(C)(C)C3)c(C(F)(F)F)nc12 (centres unmarked)', 'large crabgrass (Digitaria sanguinalis)', 20),
  ('CC1(C)CC([S+]([O-])Cc2c(C(F)(F)Cl)nc3n(c2=O)CCC3)=NO1 (centres unmarked)', 'large crabgrass (Digitaria sanguinalis)', 80),
  ('CC1(C)CC(S(=O)(=O)Cc2c(C(F)(F)Cl)nc3n(c2=O)CCCC3)=NO1', 'large crabgrass (Digitaria sanguinalis)', 100),
  ('CC1(C)CC([S+]([O-])Cc2c(C(F)(F)F)nc3n(c2=O)CCC3)=NO1 (centres unmarked)', 'large crabgrass (Digitaria sanguinalis)', 80),
  ('CC1(C)CC(S(=O)(=O)Cc2c(C(F)(F)F)nc3cccnn3c2=O)=NO1', 'large crabgrass (Digitaria sanguinalis)', 90),
  ('CCn1c(=O)c(C[S+]([O-])C2=NOC(C)(C)C2)nc2ccccc21 (centres unmarked)', 'large crabgrass (Digitaria sanguinalis)', 0),
  ('Cn1c(=O)c(CS(=O)(=O)C2=NOC(C)(C)C2)nc2ccccc21', 'large crabgrass (Digitaria sanguinalis)', 70);

Then there is this molecule:
The molecule listed as Cn1c(=O)c(CS(=O)(=O)C2=NOC(C)(C)C2)c(C(F)(F)F)c2ccccc21 has a reported Plant response rating, Crabgrass, Large of 50

====

System: wheat (Triticum aestivum)
Test: Test A postemergence, wheat
Format: in vivo
Conditions: 500 g ai/ha, 0 to 100 scale (0 no effect, 100 complete control)
property_measured: Plant response rating, Wheat
# respond with the number and nothing more

Solved entries:
INSERT INTO measurements (compound, property_measured, test_value) VALUES
  ('CC1(C)CC(S(=O)(=O)Cc2c(C(F)(F)F)nc3cccnn3c2=O)=NO1', 'Plant response rating, Wheat', 0),
  ('CC1(C)CC([S+]([O-])Cc2c(C(F)(F)C(F)(F)F)nc3n(c2=O)CCCC3)=NO1 (centres unmarked)', 'Plant response rating, Wheat', 20),
  ('CC1(C)CC(S(=O)(=O)Cc2c(C(F)(F)C(F)(F)F)nc3n(c2=O)CCCO3)=NO1', 'Plant response rating, Wheat', 30),
  ('CC1(C)CC(S(=O)(=O)Cc2c(C(F)(F)F)nc3n(c2=O)CCCO3)=NO1', 'Plant response rating, Wheat', 10);

Then there is this compound:
The compound listed as CCn1c(=O)c(C[S+]([O-])C2=NOC(C)(C)C2)nc2ccccc21 (centres unmarked) has a reported Plant response rating, Wheat of 0
